// provenance: patent US20100016274A1

Below, each of the compounds is paired with its reported pIC50 value.
# Assayed Target: cannabinoid receptor-1 (CB1), CB1R-containing cell membrane (Homo sapiens)
# Construct: purchased Applied Cell Sciences Inc, Rockville, Md
# Sequence (P21554 whole entry, species assumed): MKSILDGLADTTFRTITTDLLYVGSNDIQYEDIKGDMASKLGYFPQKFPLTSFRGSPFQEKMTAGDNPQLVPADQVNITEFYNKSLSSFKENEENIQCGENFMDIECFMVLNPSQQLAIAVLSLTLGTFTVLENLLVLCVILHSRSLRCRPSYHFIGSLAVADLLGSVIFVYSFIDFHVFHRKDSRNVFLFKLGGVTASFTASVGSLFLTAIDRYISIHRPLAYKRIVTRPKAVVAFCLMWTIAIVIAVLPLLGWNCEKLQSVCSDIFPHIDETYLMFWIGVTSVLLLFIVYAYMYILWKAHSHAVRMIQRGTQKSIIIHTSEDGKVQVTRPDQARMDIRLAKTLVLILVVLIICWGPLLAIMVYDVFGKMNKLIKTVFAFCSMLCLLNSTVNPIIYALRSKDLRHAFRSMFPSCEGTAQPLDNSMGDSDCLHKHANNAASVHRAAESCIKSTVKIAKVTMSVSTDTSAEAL
# Test Details: biochemical
# Type: binding
# Measurement Setup: IC50, displacement of 3H-CP55940 (1 nM) on CB1 receptors
pIC50: −log10 of the molar value.

Compound: O=C(CC[C@@H](C(=O)N1CCN(C2CCCCC2)CC1)N1C(=O)[C@@H](N2C(=O)OC[C@@H]2c2ccccc2)[C@H]1/C=C/c1ccccc1)NCc1ccc(F)c(C(F)(F)F)c1 [Example 37R]
Readout Name: pIC50
Result Value: > 5.00
--
Compound: O=C(NCc1cccc(F)c1)[C@H](CCC(=O)N1CCN(C2CCCCC2)CC1)N1C(=O)[C@@H](N2C(=O)OC[C@@H]2c2ccccc2)[C@H]1/C=C/c1ccccc1 [Example 38M]
Readout Name: pIC50
Result Value: ~5.00

# input So what's the measured pIC50 for this one? O=C(NCc1ccc(C(F)(F)F)cc1)[C@H](CCC(=O)N1CCN(C2CCCCC2)CC1)N1C(=O)[C@@H](N2C(=O)OC[C@@H]2c2ccccc2)[C@H]1/C=C/c1ccccc1 [Example 38BH]
# output > 5.00

# input Sample O=C(CC[C@@H](C(=O)N1CCN(C2CCCCC2)CC1)N1C(=O)[C@@H](N2C(=O)OC[C@@H]2c2ccccc2)[C@H]1/C=C/c1ccccc1)NCc1cccc(C(F)(F)F)c1F [Example 37T] — what was its pIC50?
# output > 5.00

# input Name the reported pIC50 value associated with the compound O=C(CN1C(=O)C(c2cccs2)C1C=Cc1ccccc1)OCc1ccccc1 (stereo not drawn) [Example 70B]
# output > 5.00

# input Requested read-out: pIC50. Entry: O=C(NCc1cc(F)cc(F)c1)[C@H](CCC(=O)N1CCN(C2CCCCC2)CC1)N1C(=O)[C@@H](N2C(=O)OC[C@@H]2c2ccccc2)[C@H]1/C=C/c1ccccc1 [Example 38N]
# output ~5.00

* * *

Reported pIC50 values for the following molecules.
# Assayed Target: cannabinoid receptor-1 (CB1), CB1R-containing cell membrane (Homo sapiens)
# Construct: purchased Applied Cell Sciences Inc, Rockville, Md
# Test Details: biochemical
# Assay type: binding
# Measurement Setup: IC50, displacement of 3H-CP55940 (1 nM) on CB1 receptors
# Protocol: Method A using cell membranes. A compound is dissolved in DMSO and diluted to 1 M as a stock solution. […] A CB1R-containing cell membrane (Applied Cell Sciences Inc, Rockville, Md.) is diluted with binding buffer to a protein concentration of 28 μg/ml. The mixture is incubated for 90 min at room temperature, then filtered through Whatman glass fiber C disc filter in a vacuum manifold. The filter is washed three times each with 2.5 ml cold wash buffer (binding buffer with only 2.5 mg/ml BSA). […]
pIC50: −log10 of the molar value.

# input State the recorded pIC50 for this entry: COc1cccc([C@@H](C)NC(=O)[C@H](CCC(=O)N2CCN(C3CCCCC3)CC2)N2C(=O)[C@@H](N3C(=O)OC[C@@H]3c3ccccc3)[C@H]2/C=C/c2ccccc2)c1 [Example 38AE]
# output > 5.00

# input # pIC50 lookup, item O=C(NCc1cccc(C(F)(F)F)c1)[C@H](CCC(=O)N1CCN(C2CCCCC2)CC1)N1C(=O)[C@H](N2C(=O)OC[C@@H]2c2ccccc2)[C@@H]1/C=C/c1ccccc1 [Example 73C]
# output ~5.00

# input What pIC50 value was documented for this molecule, O=C(NCCc1ccccc1)[C@H](CCC(=O)N1CCN(C2CCCCC2)CC1)N1C(=O)[C@@H](N2C(=O)OC[C@@H]2c2ccccc2)[C@H]1/C=C/c1ccccc1 [Example 38AC] ?
# output > 5.00
